Where do the numbers come from? From patent US20100129369A1.

Biological target: human c-Met (human, UniProt P08581 25-1390)
Sequence (P08581 25-1390): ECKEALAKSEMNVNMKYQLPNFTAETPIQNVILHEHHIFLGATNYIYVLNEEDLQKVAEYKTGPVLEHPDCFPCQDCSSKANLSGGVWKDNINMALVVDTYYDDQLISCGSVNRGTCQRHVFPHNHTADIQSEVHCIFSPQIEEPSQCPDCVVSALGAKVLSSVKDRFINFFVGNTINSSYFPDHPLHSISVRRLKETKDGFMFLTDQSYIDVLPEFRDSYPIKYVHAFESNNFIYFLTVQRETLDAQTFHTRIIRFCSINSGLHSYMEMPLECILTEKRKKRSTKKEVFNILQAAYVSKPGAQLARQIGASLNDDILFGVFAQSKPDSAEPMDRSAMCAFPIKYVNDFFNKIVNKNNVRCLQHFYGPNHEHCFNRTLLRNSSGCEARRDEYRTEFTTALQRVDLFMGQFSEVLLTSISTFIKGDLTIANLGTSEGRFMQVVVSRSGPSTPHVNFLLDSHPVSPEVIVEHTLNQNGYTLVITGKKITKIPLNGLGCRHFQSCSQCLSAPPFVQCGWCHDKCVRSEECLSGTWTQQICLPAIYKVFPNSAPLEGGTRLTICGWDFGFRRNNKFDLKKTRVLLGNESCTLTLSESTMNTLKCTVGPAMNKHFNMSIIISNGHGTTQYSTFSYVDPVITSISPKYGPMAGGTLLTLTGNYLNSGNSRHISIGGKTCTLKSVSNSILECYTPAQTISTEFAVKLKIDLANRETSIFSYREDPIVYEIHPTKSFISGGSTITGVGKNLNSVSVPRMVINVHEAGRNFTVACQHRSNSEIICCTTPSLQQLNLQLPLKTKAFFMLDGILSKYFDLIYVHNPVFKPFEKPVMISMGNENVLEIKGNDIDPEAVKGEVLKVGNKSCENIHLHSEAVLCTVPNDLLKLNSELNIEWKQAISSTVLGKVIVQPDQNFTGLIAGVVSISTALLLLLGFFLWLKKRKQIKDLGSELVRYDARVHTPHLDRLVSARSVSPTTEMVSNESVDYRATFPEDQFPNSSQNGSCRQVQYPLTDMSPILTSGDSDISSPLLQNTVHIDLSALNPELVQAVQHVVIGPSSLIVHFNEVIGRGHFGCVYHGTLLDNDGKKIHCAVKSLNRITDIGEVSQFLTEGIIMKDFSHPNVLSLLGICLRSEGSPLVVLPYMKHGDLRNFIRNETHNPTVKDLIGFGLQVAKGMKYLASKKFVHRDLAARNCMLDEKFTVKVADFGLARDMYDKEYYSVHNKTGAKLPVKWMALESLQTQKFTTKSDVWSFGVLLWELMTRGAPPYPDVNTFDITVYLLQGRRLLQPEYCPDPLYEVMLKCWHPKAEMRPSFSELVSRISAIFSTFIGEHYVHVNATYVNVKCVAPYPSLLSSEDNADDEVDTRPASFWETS
Test: cell-based or functional assay
measuredParameter: % inhibition of HGF stimulated phospho-Met (ELISA, HCT116 cells), Ab 0.016 µg/mL
Don't forget the unit after the value.

Query: // fetch % inhibition of HGF stimulated phospho-Met (ELISA, HCT116 cells), Ab 0.016 µg/mL given entry C8-6 (antibody, human IgG2, kappa, V domains shown, Named IgG4 kappa; also called C8-6 IgG4) VH: QVQLVQSGAEVKKPGASVKVSCKASGYTFTDYYMHWVRQAPGQGLEWMGRVNPNRGGTTYNQKFEGRVTMTTDTSTSTAYMELRSLRSDDTAVYYCARTNWLDYWGQGTTVTVSS VL: DIQMTQSPSSLSASVGDRVTITCSVSSSVSSIYLHWYQQKPGKAPKLLIYSTSNLASGVPSRFSGSGSGTDFTLTISSLQPEDFATYYCIQYSGYPLTFGGGTKVEIKR
Result: -6.06%
